RESULT TYPE: melting point

{"COMPOUND": "CN(Cc1cc2c(=O)c(C(=O)NCc3ccc(Cl)cc3)cn(C)c2o1)CC(O)c1ccccn1 (stereo not drawn) [41]", "MEAS VALUE": "130 to 132 °C"}
{"COMPOUND": "CN(Cc1cc2c(=O)c(C(=O)NCc3ccc(Cl)cc3)cn(C)c2o1)CC(O)c1nccs1 (stereo not drawn)", "MEAS VALUE": "114 to 116 °C"}
{"COMPOUND": "Cn1cc(C(=O)NCc2ccc(Cl)cc2)c(=O)c2cc(CN3CC[C@@H](O)C3)oc21", "MEAS VALUE": "189 to 190 °C"}
{"COMPOUND": "CN(Cc1cc2c(=O)c(C(=O)NCc3ccc(Cl)cc3)cn(C)c2o1)CC(O)c1ccc(O)cc1 (stereo not drawn)", "MEAS VALUE": "117 to 122 °C"}
{"COMPOUND": "CN(Cc1cc2c(=O)c(C(=O)NCc3ccc(Cl)cc3)cn(C)c2o1)CC(O)c1ccc2ccccc2n1 (stereo not drawn)", "MEAS VALUE": "154 to 159 °C (dec.)"}
{"COMPOUND": "CN(Cc1cc2c(=O)c(C(=O)NCc3ccc(Cl)cc3)cn(C)c2o1)CC(O)c1cccn1C (stereo not drawn)", "MEAS VALUE": "122 to 124 °C (dec.)"}
{"COMPOUND": "CN(Cc1cc2c(=O)c(C(=O)NCc3ccc(C(F)(F)F)cc3)cn(C)c2o1)C[C@@H](O)c1ccco1", "MEAS VALUE": "113 to 115 °C"}
{"COMPOUND": "CC(O)CNCc1cc2c(=O)c(C(=O)NCc3ccc(Cl)cc3)cn(C)c2o1 (stereo not drawn)", "MEAS VALUE": "172 to 173 °C"}
{"COMPOUND": "CC(O)CN(C)Cc1cc2c(=O)c(C(=O)NCc3ccc(Cl)cc3)cn(C)c2o1 (stereo not drawn)", "MEAS VALUE": "152 °C"}
{"COMPOUND": "Cn1cc(C(=O)NCc2ccc(Cl)cc2)c(=O)c2cc(CN3CCC[C@@H]3[C@@H](O)c3ccccc3)oc21 (relative stereo)", "MEAS VALUE": "141 to 150 °C (dec.)"}
{"COMPOUND": "CCN(CC)CCn1cc(C(=O)NCc2ccc(Cl)cc2)c(=O)c2cc(CN3CCOCC3)oc21", "MEAS VALUE": "131 to 134 °C"}
{"COMPOUND": "Cn1cc(C(=O)NCc2ccc(Cl)cc2)c(=O)c2cc(C#CCCO)oc21", "MEAS VALUE": "242 to 243 °C (dec.)"}
{"COMPOUND": "O=C(NCc1ccc(Cl)cc1)c1cc2c(O)c(C(=O)NCc3ccc(Cl)cc3)cnc2o1", "MEAS VALUE": "230 to 245 °C"}
{"COMPOUND": "CN(Cc1cc2c(=O)c(C(=O)NCc3ccc(Cl)cc3)cn(C)c2o1)CC(CO)c1ccccc1 (stereo not drawn)", "MEAS VALUE": "141 to 148 °C"}
{"COMPOUND": "Cc1ccc(C(O)CN(C)Cc2cc3c(=O)c(C(=O)NCc4ccc(Cl)cc4)cn(C)c3o2)o1 (stereo not drawn)", "MEAS VALUE": "130 to 132 °C"}
{"COMPOUND": "Cn1cc(C(=O)NCc2ccc(Cl)cc2)c(=O)c2ccoc21", "MEAS VALUE": "197 to 205 °C"}
{"COMPOUND": "CN(Cc1cc2c(=O)c(C(=O)NCc3ccc(Cl)cc3)cn(C)c2o1)C[C@@H](O)c1ncccn1", "MEAS VALUE": "127 to 129 °C"}
{"COMPOUND": "CN(Cc1cc2c(=O)c(C(=O)NCc3ccc(Cl)cc3)cn(C)c2o1)CC(O)c1ccccn1 (stereo not drawn) [42]", "MEAS VALUE": "133 to 138 °C"}

* * *

{"COMPOUND": "Cn1cc(C(=O)NCc2ccc(Cl)cc2)c(=O)c2cc(CN3CCOCC3)oc21", "melting point": "211 to 212 °C"}
{"COMPOUND": "Cn1cc(C(=O)NCc2ccc(Cl)cc2)c(=O)c2cc(C#CC(O)c3ccccc3)oc21 (stereo not shown)", "melting point": "209 to 211 °C (dec.)"}
{"COMPOUND": "Cn1cc(C(=O)NCc2ccc(Cl)cc2)c(=O)c2cc(CCCCO)oc21", "melting point": "157 to 160 °C"}
{"COMPOUND": "CN(Cc1cc2c(=O)c(C(=O)NCc3ccc(Cl)cc3)cn(C)c2o1)CC(O)c1cccs1 (stereo not shown)", "melting point": "145 to 147 °C"}
{"COMPOUND": "Cn1cc(C(=O)NCc2ccc(Cl)cc2)c(=O)c2cc(C#CCC(O)c3ccccc3)oc21 (stereo not shown)", "melting point": "202 to 203 °C (dec.)"}
{"COMPOUND": "Cn1cc(C(=O)NCc2ccc(Cl)cc2)c(=O)c2cc(CCCCCO)oc21", "melting point": "151 to 152 °C"}
{"COMPOUND": "Cn1cc(C(=O)NCc2ccc(Cl)cc2)c(=O)c2cc(Br)oc21", "melting point": "232 to 233 °C"}
{"COMPOUND": "CN(Cc1cc2c(=O)c(C(=O)NCc3ccc(Cl)cc3)cn(C)c2o1)CC(O)c1cccnc1 (stereo not shown)", "melting point": "145 to 149 °C"}
{"COMPOUND": "CN(Cc1cc2c(=O)c(C(=O)NCc3ccc(Cl)cc3)cn(C)c2o1)CC(O)c1ccoc1 (stereo not shown)", "melting point": "93 to 97 °C"}
{"COMPOUND": "CN(Cc1cc2c(=O)c(C(=O)NCc3ccc(Cl)cc3)cn(C)c2o1)CC(O)c1ccc(-c2ccccc2)o1 (stereo not shown)", "melting point": "115 to 119 °C"}
{"COMPOUND": "Cn1cc(C(=O)NCc2ccc(Cl)cc2)c(=O)c2cc(C#CCCCO)oc21", "melting point": "215 to 219 °C (dec.)"}
{"COMPOUND": "CN(Cc1cc2c(=O)c(C(=O)NCc3ccc(Cl)cc3)cn(C)c2o1)CC(O)c1cnccn1 (stereo not shown)", "melting point": "148 to 151 °C"}
{"COMPOUND": "CN(Cc1cc2c(=O)c(C(=O)NCc3ccc(Cl)cc3)cn(C)c2o1)CC(O)c1ccccc1 (stereo not shown)", "melting point": "118 to 121 °C"}
{"COMPOUND": "CN(Cc1cc2c(=O)c(C(=O)NCc3ccc(Cl)cc3)cn(C)c2o1)CC(O)c1cc2ccccc2o1 (stereo not shown)", "melting point": "176 to 179 °C"}
{"COMPOUND": "Cc1cc(C(O)CN(C)Cc2cc3c(=O)c(C(=O)NCc4ccc(Cl)cc4)cn(C)c3o2)oc1C (stereo not shown)", "melting point": "140 to 140.5 °C"}
{"COMPOUND": "O=C(NCc1ccc(Cl)cc1)c1cn(CCc2ccccc2)c2oc(CN3CCOCC3)cc2c1=O", "melting point": "150 to 153 °C"}
{"COMPOUND": "CN(Cc1cc2c(=O)c(C(=O)NCc3ccc(Cl)cc3)cn(C)c2o1)CC(O)c1ccc(C#N)s1 (stereo not shown)", "melting point": "190 to 195 °C (dec.)"}
{"COMPOUND": "COc1cccc(C(O)CN(C)Cc2cc3c(=O)c(C(=O)NCc4ccc(Cl)cc4)cn(C)c3o2)c1 (stereo not shown)", "melting point": "116 to 120 °C"}
{"COMPOUND": "Cn1cc(C(=O)NCc2ccc(Cl)cc2)c(=O)c2cc(CO)oc21", "melting point": "229 to 230 °C"}
